Biological target: human type 1 glycine transporter (GlyT1) (Homo sapiens, UniProt P48067)
Construct: T98G cells (glioma cells) expressing human type 1 glycine transporter (GlyT1) were used
Sequence (P48067 1-706): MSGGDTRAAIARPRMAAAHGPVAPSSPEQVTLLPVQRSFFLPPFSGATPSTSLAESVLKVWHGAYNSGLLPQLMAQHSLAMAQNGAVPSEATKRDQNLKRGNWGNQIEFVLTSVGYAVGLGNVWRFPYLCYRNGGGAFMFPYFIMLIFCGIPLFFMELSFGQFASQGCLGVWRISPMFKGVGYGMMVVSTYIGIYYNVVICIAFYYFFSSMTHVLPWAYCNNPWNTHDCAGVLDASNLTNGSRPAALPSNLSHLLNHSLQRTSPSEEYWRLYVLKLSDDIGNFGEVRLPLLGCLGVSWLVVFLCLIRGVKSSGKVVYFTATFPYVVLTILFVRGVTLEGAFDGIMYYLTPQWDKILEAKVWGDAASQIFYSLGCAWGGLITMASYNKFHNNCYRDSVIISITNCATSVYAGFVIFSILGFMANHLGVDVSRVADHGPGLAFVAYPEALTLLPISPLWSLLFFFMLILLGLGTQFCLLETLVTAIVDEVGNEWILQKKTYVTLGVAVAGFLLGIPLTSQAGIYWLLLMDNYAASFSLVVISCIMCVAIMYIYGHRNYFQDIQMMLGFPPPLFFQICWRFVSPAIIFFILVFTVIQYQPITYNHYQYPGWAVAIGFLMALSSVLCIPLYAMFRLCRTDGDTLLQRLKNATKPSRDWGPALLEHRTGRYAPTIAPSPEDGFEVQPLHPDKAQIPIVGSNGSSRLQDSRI
Assay: Glycine uptake inhibition experiment ([3H]glycine uptake)
Type: cell-based
Conditions: GlyT1
PARAMETER: log10 of IC50 (log10 of the value in nM)
Plainly stated, the numbers are log10 of IC50 given in nM.

### Prompt Note log10 of IC50 for the compound shown: CCn1cc(-c2cccc(C(NC(=O)c3ccnc(Cl)c3Cl)C3(O)CCC(F)(F)CC3)c2)cn1 (stereo not drawn) [Compound 173]
### Response 3.00

### Prompt Note log10 of IC50 for the compound shown: O=C(NC(c1cccc(F)c1Cl)[C@]1(O)CC[C@@H](F)CC1)c1nccc(C(F)F)c1Cl (single isomer, unassigned) [Compound 241]
### Response 2.04

### Prompt Note log10 of IC50 for the compound shown: COc1cccc(C(=O)NC(c2cccc(F)c2Cl)[C@]2(O)CC[C@@H](F)CC2)c1Cl (single isomer, unassigned) [Compound 289]
### Response 3.20

### Prompt Note log10 of IC50 for the compound shown: N#Cc1cccc(C(NC(=O)c2nccc(C(F)(F)F)c2Cl)C2(O)CCCC2)c1 (stereo not drawn) [Compound 23]
### Response 2.48

### Prompt Note log10 of IC50 for the compound shown: O=C(NC(c1cccc(-c2cnn(CC(F)(F)F)c2)c1)C1(O)CCC(F)(F)CC1)c1nccc(C(F)(F)F)c1Cl (stereo not drawn) [Compound 132]
### Response 2.11

### Prompt Note log10 of IC50 for the compound shown: O=C(NC(c1ccccc1Cl)[C@]1(O)CC[C@@H](F)CC1)c1cc(C(F)(F)F)cnc1Cl (single isomer, unassigned) [Compound 367]
### Response 2.58

---

Biological target: human type 1 glycine transporter (GlyT1) (Homo sapiens)
Construct: T98G cells (glioma cells) expressing human type 1 glycine transporter (GlyT1) were used
Test: Glycine uptake inhibition experiment ([3H]glycine uptake)
Format: cell-based
Conditions: GlyT1
PARAMETER: IC50

### Prompt Note IC50 for the molecule shown: CCn1cc(-c2cccc(C(NC(=O)c3ccc(F)cc3C(F)(F)F)C3(O)CCC(F)(F)CC3)c2)cn1 (single isomer, unassigned) [Compound 215]
### Response 0.21 µM

### Prompt Note IC50 for the molecule shown: O=C(NC(c1ccccc1Cl)C1(O)CCC(F)(F)CC1)c1ccnc(C(F)(F)F)c1Cl (single isomer, unassigned)
### Response 0.17 µM

### Prompt Note IC50 for the molecule shown: O=C(NC(c1ncccc1Cl)C1(O)CCC(F)(F)CC1)c1nccc(C(F)(F)F)c1Cl (single isomer, unassigned) [Compound 319]
### Response 1.8 µM

### Prompt Note IC50 for the molecule shown: O=C(NC(c1cccc(F)c1Cl)[C@]1(O)CC[C@@H](F)CC1)c1ncccc1Cl (single isomer, unassigned)
### Response 1.2 µM

### Prompt Note IC50 for the molecule shown: `O=C(N[C@@H](c1cccc(Br)c1)[C@]1(O)CC[C@H](F)CC1)c1nccc(C(F)(F)F)c1Cl`
### Response 0.15 µM

### Prompt Note IC50 for the molecule shown: O=C(NC(c1cccc(F)c1Cl)[C@]1(O)CC[C@@H](F)CC1)c1ccc(F)cc1Cl (single isomer, unassigned)
### Response 1.3 µM

### Prompt Note IC50 for the molecule shown: O=C(NC(c1cccnc1Cl)[C@]1(O)CC[C@@H](F)CC1)c1ccnc(C(F)(F)F)c1Cl (single isomer, unassigned)
### Response 0.59 µM

### Prompt Note IC50 for the molecule shown: O=C(NC(c1cccnc1)[C@]1(O)CC[C@@H](F)CC1)c1nccc(C(F)(F)F)c1Cl (single isomer, unassigned) [Compound 266]
### Response 1.6 µM

---

Target: human type 1 glycine transporter (GlyT1) (Homo sapiens, UniProt P48067)
Construct: T98G cells (glioma cells) expressing human type 1 glycine transporter (GlyT1) were used
Assay: Glycine uptake inhibition experiment ([3H]glycine uptake)
Assay type: cell-based
Conditions: GlyT1
pIC50: −log10 of the molar value.
Answer NO if pIC50 is under 6, and YES if it is 6 or more.

### Prompt Does the molecule CS(=O)(=O)c1ncc(C(F)(F)F)cc1C(=O)NC(c1cccc(F)c1Cl)[C@]1(O)CC[C@@H](F)CC1 (single isomer, unassigned) have recorded pIC50 that is 6 or more?
### Response YES

### Prompt Does the molecule O=C(NC(c1cccc(F)c1Cl)[C@]1(O)CC[C@@H](F)CC1)c1ccc(Cl)nc1-n1nccn1 (single isomer, unassigned) have recorded pIC50 that is 6 or more?
### Response NO

### Prompt Does the molecule `O=C(N[C@H](c1cccc(Cl)c1)[C@]1(O)CC[C@@H](F)CC1)c1nccc(C(F)(F)F)c1Cl` have recorded pIC50 that is 6 or more?
### Response NO

### Prompt Does the molecule O=C(NC(c1ccc(Cl)cc1)C1(O)CCCC1)c1nccc(C(F)(F)F)c1Cl (stereo not drawn) have recorded pIC50 that is 6 or more?
### Response NO

### Prompt Does the molecule CS(=O)(=O)c1cc(C(F)(F)F)cnc1C(=O)NC(c1cccc(F)c1Cl)[C@]1(O)CC[C@@H](F)CC1 (single isomer, unassigned) have recorded pIC50 that is 6 or more?
### Response NO

### Prompt Does the molecule O=C(NC(c1cccc(OC(F)(F)F)c1)C1(O)CCCC1)c1nccc(C(F)(F)F)c1Cl (stereo not drawn) have recorded pIC50 that is 6 or more?
### Response NO

### Prompt Does the molecule O=C(NC(c1cccc(Cl)c1F)C1(O)CCC(F)CC1)c1nccc(C(F)(F)F)c1Cl (single isomer, unassigned) [Compound 200] have recorded pIC50 that is 6 or more?
### Response YES

### Prompt Does the molecule O=C(N[C@@H](c1cccc(F)c1)C1(O)CCC(F)(F)CC1)c1nccc(C(F)(F)F)c1Cl (single isomer, unassigned) have recorded pIC50 that is 6 or more?
### Response YES

### Prompt Does the molecule O=C(NC(c1cccc(F)c1Cl)[C@]1(O)CC[C@@H](F)CC1)c1cc(Cl)ccc1Cl (single isomer, unassigned) have recorded pIC50 that is 6 or more?
### Response YES

### Prompt Does the molecule CCn1cc(-c2cccc(C(NC(=O)c3ncc(Cl)cc3C(F)(F)F)C3(O)CCC(F)(F)CC3)c2)cn1 (stereo not drawn) have recorded pIC50 that is 6 or more?
### Response NO

### Prompt Does the molecule O=C(NC(c1cccc(F)c1)C1(O)CCC(F)CC1)c1nccc(C(F)(F)F)c1Cl (single isomer, unassigned) have recorded pIC50 that is 6 or more?
### Response YES

---

Target: human type 1 glycine transporter (GlyT1) (Homo sapiens)
Construct: T98G cells (glioma cells) expressing human type 1 glycine transporter (GlyT1) were used
Assay: Glycine uptake inhibition experiment ([3H]glycine uptake)
Format: cell-based
Conditions: GlyT1
PARAMETER: pIC50
Answer as the number alone; pIC50 is minus log10 of concentration in mol/L.

### Prompt Note pIC50 for the compound shown: O=C(NC(c1cccc(F)c1F)C1(O)CCC(F)CC1)c1nccc(C(F)(F)F)c1Cl (single isomer, unassigned) [Compound 204]
### Response 7.00

### Prompt Note pIC50 for the compound shown: O=C(NC(c1cccc(F)c1Cl)[C@]1(O)CC[C@@H](F)CC1)c1cccc(Cl)c1Cl (single isomer, unassigned) [Compound 248]
### Response 6.05

### Prompt Note pIC50 for the compound shown: O=C(NC(c1cccc(F)c1Cl)[C@]1(O)CC[C@@H](F)CC1)c1cccc(Cl)c1C(F)(F)F (single isomer, unassigned) [Compound 312]
### Response 6.05

### Prompt Note pIC50 for the compound shown: O=C(NC(c1cccc(Cl)c1)[C@]1(O)CC[C@@H](F)CC1)c1nccc(C(F)(F)F)c1Cl (some centres unmarked) [Compound 153]
### Response 7.01

### Prompt Note pIC50 for the compound shown: Cc1cccc(C(NC(=O)c2nccc(C(F)(F)F)c2Cl)C2(O)CCCC2)c1 (centres unmarked) [Compound 48]
### Response 6.17

### Prompt Note pIC50 for the compound shown: CCn1cc(-c2cccc(C(NC(=O)c3cccc4ccccc34)C3(O)CCC(F)(F)CC3)c2)cn1 (single isomer, unassigned) [Compound 195]
### Response 5.96

### Prompt Note pIC50 for the compound shown: O=C(NC(c1cccc(F)c1Cl)[C@]1(O)CC[C@@H](F)CC1)c1c(Cl)cccc1Cl (single isomer, unassigned) [Compound 254]
### Response 6.00

### Prompt Note pIC50 for the compound shown: O=C(NC(c1cccc(-c2cccnc2)c1)C1(O)CCCC1)c1nccc(C(F)(F)F)c1Cl (single isomer, unassigned) [Compound 25]
### Response 7.16

### Prompt Note pIC50 for the compound shown: O=C(N[C@H](c1cccc(Br)c1)[C@]1(O)CC[C@H](F)CC1)c1nccc(C(F)(F)F)c1Cl [Compound 101]
### Response 5.82

### Prompt Note pIC50 for the compound shown: O=C(NC(c1cccnc1)[C@]1(O)CC[C@@H](F)CC1)c1nccc(C(F)(F)F)c1Cl (single isomer, unassigned) [Compound 265]
### Response 6.05

### Prompt Note pIC50 for the compound shown: O=C(N[C@@H](c1cccc(Br)c1)C1(O)CCCC1)c1nccc(C(F)(F)F)c1Cl [Compound 33]
### Response 7.09
